- Assayed target: human recombinant HDAC6 (Homo sapiens)
- Protocol notes: HDAC6 enzyme activity inhibition assay (HDAC Fluorimetric Drug Discovery Kit)
- Test parameters: same protocol as the HDAC1 enzyme activity test
Readout name: pIC50
Please treat pIC50 as minus the base-10 logarithm of the molar concentration.

Task: I'd like to know its pIC50. The molecule in question is O=S(=O)(CCN1CCN(c2ccccn2)CC1)N(Cc1ccc(-c2nnc(C(F)F)o2)cc1)c1ccccc1
Result: 6.93

Task: I'd like to know its pIC50. The molecule in question is CS(=O)(=O)N(Cc1ccc(-c2nnc(C(F)(F)F)o2)cc1F)c1ccc(C(F)(F)F)cc1
Result: 7.51

Task: I'd like to know its pIC50. The molecule in question is CS(=O)(=O)N(Cc1ccc(-c2nnc(C(F)F)o2)cc1)CC12CC3CC(CC(C3)C1)C2
Result: 6.86

Task: I'd like to know its pIC50. The molecule in question is CS(=O)(=O)N(Cc1ccc(-c2nnc(C(F)F)o2)cc1)c1cccnc1
Result: 7.32

Task: I'd like to know its pIC50. The molecule in question is CS(=O)(=O)N(Cc1ccc(-c2nnc(C(F)F)o2)cc1F)c1ccccc1Cl
Result: 7.10

Task: I'd like to know its pIC50. The molecule in question is O=S(=O)(CCN1CCN(c2ccc(Cl)c(Cl)c2)CC1)N(Cc1ccc(-c2nnc(C(F)F)o2)cc1)c1ccccc1
Result: 6.05

Task: I'd like to know its pIC50. The molecule in question is O=S(=O)(C1CC1)N(Cc1ccc(-c2nnc(C(F)F)o2)cc1F)c1ccccc1
Result: 7.51

---

- Assayed target: human recombinant HDAC6 (Homo sapiens, UniProt Q9UBN7)
- Construct: purchased Calbiochem 382180
- Sequence (Q9UBN7 whole entry): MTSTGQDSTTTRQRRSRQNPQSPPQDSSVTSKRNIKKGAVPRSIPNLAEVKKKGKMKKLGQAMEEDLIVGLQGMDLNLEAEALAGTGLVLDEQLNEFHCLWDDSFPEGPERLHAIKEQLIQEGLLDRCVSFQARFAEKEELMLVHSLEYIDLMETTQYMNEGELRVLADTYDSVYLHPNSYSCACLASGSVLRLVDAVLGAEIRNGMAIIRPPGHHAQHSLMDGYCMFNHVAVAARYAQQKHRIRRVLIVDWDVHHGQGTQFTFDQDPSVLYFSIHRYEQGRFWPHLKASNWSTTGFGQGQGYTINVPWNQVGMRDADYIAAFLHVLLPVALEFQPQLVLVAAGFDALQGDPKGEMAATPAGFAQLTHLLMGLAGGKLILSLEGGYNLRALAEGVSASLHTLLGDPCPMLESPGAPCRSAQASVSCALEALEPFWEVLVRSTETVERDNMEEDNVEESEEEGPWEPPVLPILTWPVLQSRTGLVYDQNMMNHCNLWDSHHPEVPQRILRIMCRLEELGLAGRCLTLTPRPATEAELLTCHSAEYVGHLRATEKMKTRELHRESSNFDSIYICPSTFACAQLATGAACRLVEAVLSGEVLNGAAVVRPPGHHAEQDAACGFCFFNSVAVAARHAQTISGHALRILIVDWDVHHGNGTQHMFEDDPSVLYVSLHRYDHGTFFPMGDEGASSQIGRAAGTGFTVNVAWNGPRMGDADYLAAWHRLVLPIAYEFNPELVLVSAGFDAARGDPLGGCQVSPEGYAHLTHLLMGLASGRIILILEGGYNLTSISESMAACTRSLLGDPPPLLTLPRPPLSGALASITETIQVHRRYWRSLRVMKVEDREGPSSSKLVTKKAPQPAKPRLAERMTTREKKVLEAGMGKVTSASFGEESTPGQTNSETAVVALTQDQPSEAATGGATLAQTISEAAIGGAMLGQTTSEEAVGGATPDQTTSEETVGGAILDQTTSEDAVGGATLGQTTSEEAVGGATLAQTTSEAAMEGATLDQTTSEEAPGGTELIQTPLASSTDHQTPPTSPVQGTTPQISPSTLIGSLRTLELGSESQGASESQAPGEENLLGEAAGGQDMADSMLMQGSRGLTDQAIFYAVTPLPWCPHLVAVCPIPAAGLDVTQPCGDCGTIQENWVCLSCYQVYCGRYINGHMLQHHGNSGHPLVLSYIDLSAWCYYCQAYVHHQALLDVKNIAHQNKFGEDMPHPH
- Protocol notes: HDAC6 enzyme activity inhibition assay (HDAC Fluorimetric Drug Discovery Kit)
- Format: biochemical
- Test parameters: same protocol as the HDAC1 enzyme activity test
Assignment: determine reported IC50 for the given molecules.

Task: I'd like to know its IC50. The molecule in question is CN1CCN(CCCS(=O)(=O)N(Cc2ccc(-c3nnc(C(F)F)o3)cc2F)c2ccccc2)CC1
Result: 43 nM

Task: I'd like to know its IC50. The molecule in question is CCCS(=O)(=O)N(Cc1ccc(-c2nnc(C(F)F)o2)cc1F)c1ccccc1
Result: 28 nM

Task: I'd like to know its IC50. The molecule in question is O=S(=O)(c1cccnc1)N(Cc1ccc(-c2nnc(C(F)F)o2)cc1F)c1ccccc1
Result: 39 nM

Task: I'd like to know its IC50. The molecule in question is CS(=O)(=O)N(Cc1ccc(-c2nnc(C(F)F)o2)cc1F)[C@H]1CCc2ccccc21
Result: 391 nM

Task: I'd like to know its IC50. The molecule in question is CS(=O)(=O)N(Cc1ccc(-c2nnc(C(F)F)o2)cn1)c1ccc2c(c1)OCO2
Result: 28 nM

Task: I'd like to know its IC50. The molecule in question is CS(=O)(=O)N(Cc1ccc(-c2nnc(C(F)(F)F)o2)cc1)Cc1ccccn1
Result: 158 nM

Task: I'd like to know its IC50. The molecule in question is O=S(=O)(CCCN1CCC(F)C1)N(Cc1ccc(-c2nnc(C(F)F)o2)cc1)c1ccccc1 (stereo in doubt)
Result: 135 nM

Task: I'd like to know its IC50. The molecule in question is O=S(=O)(CCN1CCC(N2CCOCC2)CC1)N(Cc1ccc(-c2nnc(C(F)F)o2)cc1)c1ccccc1
Result: 105 nM

Task: I'd like to know its IC50. The molecule in question is CCS(=O)(=O)N(Cc1ccc(-c2nnc(C(F)F)o2)cc1F)c1cccc(CN2CCS(=O)(=O)CC2)c1
Result: 100 nM

Task: I'd like to know its IC50. The molecule in question is CS(=O)(=O)N(Cc1ccc(-c2nnc(C(F)F)o2)cn1)c1cccc(Br)c1
Result: 8 nM

---

- Assayed target: human recombinant HDAC6 (Homo sapiens, UniProt Q9UBN7)
- Construct: purchased Calbiochem 382180
- Protocol notes: HDAC6 enzyme activity inhibition assay (HDAC Fluorimetric Drug Discovery Kit)
- Format: biochemical
- Test parameters: HDAC1 vs HDAC6
Assignment: determine reported HDAC6 selectivity (fold) for the given molecules.

Task: I'd like to know its HDAC6 selectivity (fold). The molecule in question is CS(=O)(=O)N(Cc1ccc(-c2nnc(C(F)F)o2)cc1F)c1ccccc1 [Compound 11170]
Result: 7143 fold

Task: I'd like to know its HDAC6 selectivity (fold). The molecule in question is CS(=O)(=O)N(Cc1ccc(-c2nnc(C(F)F)o2)cc1)c1cncnc1 [Compound 11636]
Result: 862 fold

Task: I'd like to know its HDAC6 selectivity (fold). The molecule in question is CC(C)N1CCC(S(=O)(=O)N(Cc2ccc(-c3nnc(C(F)F)o3)cc2)c2ccccc2)CC1 [Compound 11638]
Result: 1778 fold

Task: I'd like to know its HDAC6 selectivity (fold). The molecule in question is CCS(=O)(=O)N(Cc1ccc(-c2nnc(C(F)F)o2)cn1)c1ccc(C)c(Cl)c1 [Compound 11505]
Result: 4646 fold

Task: I'd like to know its HDAC6 selectivity (fold). The molecule in question is COc1ccc(S(=O)(=O)NCc2ccc(-c3nnc(C(F)(F)F)o3)cc2)cc1 [Compound 11078]
Result: 29 fold

Task: I'd like to know its HDAC6 selectivity (fold). The molecule in question is CC(C)N1Cc2ccc(N(Cc3ccc(-c4nnc(C(F)F)o4)cc3)S(C)(=O)=O)cc2C1 [Compound 11730]
Result: 39 fold

Task: I'd like to know its HDAC6 selectivity (fold). The molecule in question is O=S(=O)(CCN1CCN(Cc2ccccc2)CC1)N(Cc1ccc(-c2nnc(C(F)F)o2)cc1)c1ccccc1 [Compound 11663]
Result: 578 fold

Task: I'd like to know its HDAC6 selectivity (fold). The molecule in question is CS(=O)(=O)N(Cc1ncc(-c2nnc(C(F)(F)F)o2)cn1)c1ccccc1 [Compound 11565]
Result: 312 fold

Task: I'd like to know its HDAC6 selectivity (fold). The molecule in question is CS(=O)(=O)N(Cc1ccc(-c2nnc(C(F)F)o2)cc1F)c1cccc(Br)c1 [Compound 11197]
Result: 6667 fold

Task: I'd like to know its HDAC6 selectivity (fold). The molecule in question is CN(C)CCS(=O)(=O)N(Cc1ccc(-c2nnc(C(F)F)o2)cc1)c1ccccc1 [Compound 11797]
Result: 821 fold

Task: I'd like to know its HDAC6 selectivity (fold). The molecule in question is O=S(=O)(C1CCOC1)N(Cc1ccc(-c2nnc(C(F)F)o2)cn1)c1ccccc1 (stereo not drawn) [Compound 11428]
Result: 6667 fold

Task: I'd like to know its HDAC6 selectivity (fold). The molecule in question is COc1ccc(N(Cc2ccc(-c3nnc(C(F)(F)F)o3)cc2F)S(C)(=O)=O)cc1 [Compound 11192]
Result: 108 fold

---

- Assayed target: human recombinant HDAC6 (Homo sapiens)
- Protocol notes: HDAC6 enzyme activity inhibition assay (HDAC Fluorimetric Drug Discovery Kit)
- Test parameters: same protocol as the HDAC1 enzyme activity test
# MET = IC50 below 70 nM (exclusive); NOT MET = IC50 at/above 70 nM

Task: Input CS(=O)(=O)N(Cc1ccc(-c2nnc(C(F)(F)F)o2)cc1F)c1cncnc1 ; condition: IC50 strictly below 70 nM. Does it hold?
Result: MET

Task: Input O=C(C1CC1)N1CCN(CCS(=O)(=O)N(Cc2ccc(-c3nnc(C(F)F)o3)cc2)c2ccccc2)CC1 ; condition: IC50 strictly below 70 nM. Does it hold?
Result: NOT MET

Task: Input CS(=O)(=O)N(Cc1ccc(-c2nnc(C(F)(F)F)o2)cc1F)c1ccccc1Cl ; condition: IC50 strictly below 70 nM. Does it hold?
Result: NOT MET

Task: Input NC(=O)[C@@H]1C[C@@H](O)CN1CCS(=O)(=O)N(Cc1ccc(-c2nnc(C(F)F)o2)cn1)c1ccccc1 ; condition: IC50 strictly below 70 nM. Does it hold?
Result: MET

Task: Input CCS(=O)(=O)N(Cc1ccc(-c2nnc(C(F)F)o2)cn1)c1ccc(CN2CCN(S(C)(=O)=O)CC2)cc1 ; condition: IC50 strictly below 70 nM. Does it hold?
Result: NOT MET

Task: Input CS(=O)(=O)N(Cc1ccc(-c2nnc(C(F)F)o2)nn1)c1ccccc1 ; condition: IC50 strictly below 70 nM. Does it hold?
Result: NOT MET

Task: Input O=S(=O)(CCCN1CCOCC1)N(Cc1ccc(-c2nnc(C(F)F)o2)cn1)c1ccccc1 ; condition: IC50 strictly below 70 nM. Does it hold?
Result: NOT MET

---

Assignment: determine reported pIC50 for the given compounds.
- Assayed target: human recombinant HDAC6 (Homo sapiens)
- Protocol notes: HDAC6 enzyme activity inhibition assay (HDAC Fluorimetric Drug Discovery Kit)
- Test parameters: same protocol as the HDAC1 enzyme activity test
- Method: In order to examine the HDAC6 selectivity of the compounds of formula I of the present invention by HDAC1 and HDAC6 enzymatic activity inhibition assays, an experiment was performed using a conventional substance as a control. HDAC enzyme activity was measured using a HDAC Fluorimetric Drug Discovery Kit (BML-AK511, 516, Enzo Life Science). […] Based on the resulting values, each IC50 value was calculated using GraphPad Prism4.0 program.
Please treat pIC50 as minus the base-10 logarithm of the molar concentration.

Task: I'd like to know its pIC50. The compound in question is CN1CCC(S(=O)(=O)N(Cc2ccc(-c3nnc(C(F)F)o3)cc2F)c2ccccc2)CC1
Result: 8.05

Task: I'd like to know its pIC50. The compound in question is CCS(=O)(=O)N(Cc1ccc(-c2nnc(C(F)F)o2)cn1)c1ccc(C)c(F)c1
Result: 8.00

Task: I'd like to know its pIC50. The compound in question is O=S1(=O)CCC(S(=O)(=O)N(Cc2ccc(-c3nnc(C(F)F)o3)cn2)c2ccc(F)c(Cl)c2)CC1
Result: 8.10

Task: I'd like to know its pIC50. The compound in question is O=S(=O)(C1CCN(C2COC2)CC1)N(Cc1ccc(-c2nnc(C(F)F)o2)cc1F)c1ccccc1
Result: 6.86

Task: I'd like to know its pIC50. The compound in question is CS(=O)(=O)N(Cc1ccc(-c2nnc(C(F)(F)F)o2)c(F)c1)c1ccccc1
Result: 6.63

Task: I'd like to know its pIC50. The compound in question is CS(=O)(=O)N(Cc1ccc(-c2nnc(C(F)F)o2)cc1)c1nccs1
Result: 6.17
